For each of the molecules below, state its Bioaccumulation in Rats.
assay: Bioaccumulation tests in rats; assay type: in vivo, Sprague Dawley and Fisher Rats; conditions: female rats, oral gavage on five consecutive days, sacrificed after 14 days, tissue analysis by GC-ECD with regard to total dose
State just the number; it will be interpreted in %.

Task: // query Bioaccumulation in Rats value for entry CC1CC2(Cl)CCC1(Cl)C2(Cl)Cl (stereo not shown) [CIC-151, 1,4,7,7-tetrachloro-2-methyl-norbornane]
Output: 0.01

Task: Now consider ClC12C=CC(Cl)(CC1)C2(Cl)Cl [CIC-142, 1,4,7,7-tetrachloronorbon-2-ene] and answer again.
Output: 1.24

Task: Now consider ClC1=CC2(Cl)CCC1(Cl)C2(Cl)Cl (stereo not shown) [CIC-147, 1,2,4,7,7-pentachloronorborn-2-ene] and answer again.
Output: 1.04

---

For each of the compounds below, state its 100% effect.
tested on: Aedes aegypti; assay: Filter paper test for insecticidal activity against mosquitoes (Table 3); format: in vivo; settings: 1% solution in acetone, 1 ml on filter paper; time after which 100% of the mosquitoes were affected (dead, lying down, wobbly, erratic)

Task: // query 100% effect value for entry `ClC12C=CC(Cl)(CC1)C2(Cl)Cl`
Output: 0.25 h

Task: Now consider ClC1=CC2(Cl)CCC1(Cl)C2(Cl)Cl (centres unmarked) and answer again.
Output: 0.08 h

Task: Now consider Cl[C@@H]1[C@H](Cl)[C@]2(Cl)CC[C@@]1(Cl)C2 [CIC-145, 1,2-endo,3-endo,4-tetrachloronorbornane] and answer again.
Output: 0.08 h

Task: Now consider Cl[C@@H]1C[C@]2(Cl)CC[C@@]1(Cl)C2(Cl)Cl [CIC-141, 1,2-endo,4,7,7-pentachloronorbornane] and answer again.
Output: 0.25 h

Task: Now consider `Cl[C@H]1[C@H](Cl)[C@@]2(Cl)CC[C@]1(Cl)C2(Cl)Cl` and answer again.
Output: 3 h
